pIC50: −log10 of the molar value.
Header: pIC50 / Vascular endothelial growth factor receptor 2 (Homo sapiens) / multiple publications

# compound, target, qualifier symbol, pIC50
records = [
    ("Cc1csc2c(Oc3ccc(NC(=O)Nc4ccc(C#N)cc4)cc3)ncnc12", "Vascular endothelial growth factor receptor 2 (Homo sapiens)", "<", 4.00),
    ("COC(=O)C(Cc1ccc(O)cc1)NC(=O)c1cc2ccccc2oc1=O (stereo not drawn)", "Vascular endothelial growth factor receptor 2 (Homo sapiens)", "=", 4.63),
    ("CCc1nc2nc(Nc3ccc4nc(OCCN5CCOCC5)ccc4c3)nc(NC(C)(C)C)c2[nH]1", "Vascular endothelial growth factor receptor 2 (Homo sapiens)", "<", 5.00),
    ("COc1cc2ncnc(Nc3c(Cl)ccc(O)c3Cl)c2cc1OC", "Vascular endothelial growth factor receptor 2 (Homo sapiens)", "=", 5.85),
    ("CCNC(=S)NS(=O)(=O)c1ccc(NC(=O)CN2C(=O)SC(=Cc3ccc(C)cc3)C2=O)cc1", "Vascular endothelial growth factor receptor 2 (Homo sapiens)", "=", 6.85),
    ("O=C(Cn1c(=O)[nH]c2ccccc2c1=O)NCc1n[nH]c(=S)o1", "Vascular endothelial growth factor receptor 2 (Homo sapiens)", "=", 6.53),
    ("FC(F)(F)c1cc(NC(=S)Nc2ccc(-c3cccnc3)cc2)cc(C(F)(F)F)c1", "Vascular endothelial growth factor receptor 2 (Homo sapiens)", "<", 6.30),
    ("NS(=O)(=O)c1ccc(N=c2[nH]c3nc4ccccc4nc3s2)cc1", "Vascular endothelial growth factor receptor 2 (Homo sapiens)", "=", 6.77),
    ("COc1cc2nc(-c3ccc(C(F)(F)F)cc3)cc(OCCCNCC3CCCO3)c2cc1OC (stereo not drawn)", "Vascular endothelial growth factor receptor 2 (Homo sapiens)", "=", 5.08),
]

* * *

Header: pIC50 / Vascular endothelial growth factor receptor 2 (Homo sapiens, UniProt P35968) / multiple publications
pIC50: −log10 of the molar value.
Hi, to clarify the labels: criterion met covers pIC50 from 7 upward, criterion not met covers anything below 7.

# molecule, discrete label
data = [
    ("O=C(Nc1ccc(F)cc1)c1ccc(NC(=O)c2cccnc2)cc1", "criterion not met"),
    ("COc1cccc(NC(=O)c2ccc(NC(=O)c3cccnc3)cc2)c1", "criterion not met"),
    ("FC(F)(F)Oc1ccc(NC(=S)Nc2ccc(-c3cccnc3)cc2)c(Br)c1", "criterion not met"),
    ("CC(C)NC(=O)c1nc2ccc(C(=O)c3cccc(NC(=O)Nc4cccc(C(F)(F)F)c4)c3)cc2[nH]1", "criterion not met"),
    ("Cn1c(COc2ccc3c(-c4ccccc4)cc(=O)oc3c2)nnc1SC1OCC(O)C(O)C1O (stereo not drawn)", "criterion not met"),
    ("CN(c1ccc2[nH]ccc2c1)c1cc(Nc2ccc(N3CCOCC3)cc2)ncn1", "criterion not met"),
    ("COc1ccc(Nc2nccc(Nc3ccc4[nH]ccc4c3)n2)cc1N1CCOCC1", "criterion met"),
    ("O=C(Cn1c(=O)[nH]c2ccccc2c1=O)NC1CCCCC1", "criterion met"),
    ("COc1cc2nc(SCC(=O)NN)n(Cc3ccccc3)c(=O)c2cc1OC", "criterion not met"),
    ("CNC(=O)c1ccccc1Sc1ccc2c(N=Nc3cc(C)[nH]c3C)n[nH]c2c1", "criterion met"),
    ("COc1cc2nc(-c3ccc(C)cc3)cc(OCCCn3ccnc3)c2cc1OC", "criterion not met"),
    ("CCN(CC)CCN1Cc2[nH]c(/C=C3\\C(=O)Nc4ccc(OC)cc43)c(C)c2C1=O", "criterion met"),
    ("CCN(CC)CCN1Cc2[nH]c(/C=C3\\C(=O)Nc4ccc(Cl)cc43)c(C)c2C1=O", "criterion met"),
    ("Cc1csc2c(Oc3ccc(NC(=O)Nc4ccccc4)cc3)ncnc12", "criterion not met"),
]
